# Test system: P. vulgatus WT;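 note: active when median AUC fell below 0.1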
# ASSAY NAME: growth AUC normalised to DMSO control (median) (fraction of control); higher = less growth inhibition, active = hit call of the paper
# TEST SETTINGS: 20 µM
Where a name gives a salt, the structure may show the parent alone.
// values below are reported growth AUC normalised to DMSO control
Just the number, please.

COc1ccnc(C[S+]([O-])c2nc3cc(OC(F)F)ccc3[nH]2)c1OC (stereo not drawn) [Pantoprazole sodium] ... 0.998
O=C(O)CCNC(=O)c1ccc(/N=N/c2ccc(O)c(C(=O)O)c2)cc1 [Balsalazide disodium salt] ... 1.08
C#C[C@]1(O)CC[C@H]2[C@@H]3CCC4=CC(=O)CC[C@@H]4[C@H]3CC[C@@]21C [Norethindrone] ... 1.03
CC(C)=CCOc1ccc(/C=C/C(=O)c2ccc(OCC=C(C)C)cc2OCC(=O)O)cc1 [Sofalcone] ... 0.993

Data point: C=CCOc1ccccc1OCC(O)CNC(C)C (stereo not drawn) [Oxprenolol hydrochloride] ; growth AUC normalised to DMSO control = 1

Documented growth AUC normalised to DMSO control of CCN(CCCc1ccccc1)CCCc1ccccc1 [Alverine citrate salt] : 1.03

According to the records, this compound NS(=O)(=O)c1cc(C(=O)NN2C[C@@H]3[C@H]4CC[C@H](C4)[C@@H]3C2)ccc1Cl [Tripamide] displays growth AUC normalised to DMSO control of 1.07

Lab note: measured growth AUC normalised to DMSO control of Cc1scc2c1N(C(=O)CN1CCN(C)CC1)c1ccccc1NC2=O [Telenzepine dihydrochloride] was 0.983
